- System: CDK8
- assay_conditions: concentration: 1 μM, replicates: in singlicate; n = 1;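 also: KINOMEscan kinase panel screen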

{"compound": "CS(=O)(=O)CCNCc1nc(-c2ccc3ncnc(Nc4ccc5c(cnn5Cc5ccccc5)c4)c3c2)cs1.Cl.Cl", "%Inh (%)": 41}
{"compound": "NS(=O)(=O)c1cccc(N/C=C2\\C(=O)Nc3ccc(S(=O)(=O)Cc4c(Cl)cccc4Cl)cc32)c1", "%Inh (%)": 0}
{"compound": "COC(=O)C(Cc1ccccc1)NC(=O)NC1CCN(c2ccnc(Nc3ccc(F)cc3)n2)C1 (centres unmarked)", "%Inh (%)": 48}
{"compound": "O=C1NC(=O)C(c2ccc(Cl)cc2)=C1Nc1ccc(O)cc1", "%Inh (%)": 11}
{"compound": "CCn1c(-c2c(N)noc2C)nc2cnccc21", "%Inh (%)": 0}

* * *

The entries below are paired with their reported %Inh.
- Test system: PFTAIRE2
- assay_conditions: concentration: 1 μM, replicates: in singlicate; n = 1

{"compound": "COc1ccc(Nc2nccc(NCCNC(=O)Nc3cc(C)ccc3C)n2)cc1", "tgt": "PFTAIRE2", "unit_info": "%", "%Inh": 9}
{"compound": "O=c1cc(N2CCOCC2)nc2n(Cc3ccccc3F)ccn12", "tgt": "PFTAIRE2", "unit_info": "%", "%Inh": 0}
{"compound": "Nc1ncnc2occ(-c3ccc4c(c3)CCN4C(=O)Cc3cc(F)ccc3F)c12", "tgt": "PFTAIRE2", "unit_info": "%", "%Inh": 12}
{"compound": "FC(F)(F)c1ccccc1-c1cc(-c2c[nH]nc2-c2ccccn2)ccn1", "tgt": "PFTAIRE2", "unit_info": "%", "%Inh": 10}
{"compound": "COC(=O)C(NC(=O)NC1CCN(c2ccnc(Nc3ccc(F)cc3)n2)C1)c1ccccc1 (stereo not drawn)", "tgt": "PFTAIRE2", "unit_info": "%", "%Inh": 14}
{"compound": "Cc1ccccc1-c1cc(-c2c[nH]nc2-c2ccccn2)ccn1", "tgt": "PFTAIRE2", "unit_info": "%", "%Inh": 0}
{"compound": "COc1ccc(Nc2nccc(-c3ccc(NC(=O)c4cc5cc(F)ccc5[nH]4)cc3)n2)cc1", "tgt": "PFTAIRE2", "unit_info": "%", "%Inh": 0}
{"compound": "CCc1ccc(-c2ccc3c(c2)-c2n[nH]cc2S(=O)(=O)N3C)cc1", "tgt": "PFTAIRE2", "unit_info": "%", "%Inh": 0}
{"compound": "Cc1ccc(NC(=O)Nc2ccc(Cl)cc2)cc1-c1ccc(C(=O)Nc2ccncc2)cc1", "tgt": "PFTAIRE2", "unit_info": "%", "%Inh": 0}
{"compound": "Cl.Cl.Cl.N#Cc1ccc(CCNc2nccc(-c3cccc(CN4CCNCC4)c3)n2)cc1", "tgt": "PFTAIRE2", "unit_info": "%", "%Inh": 16}
{"compound": "CC(C)c1ccc(O)cc1Nc1ccnc2ccc(C(F)(F)F)cc12", "tgt": "PFTAIRE2", "unit_info": "%", "%Inh": 1}
{"compound": "CNC(=O)c1ccc(C)c(-n2c(C)cc(OCc3ccc(F)cc3F)c(Br)c2=O)c1", "tgt": "PFTAIRE2", "unit_info": "%", "%Inh": 0}
{"compound": "COc1ccc(CSc2nnc(-c3ccc4ncsc4c3)o2)cc1C(F)(F)F", "tgt": "PFTAIRE2", "unit_info": "%", "%Inh": 0}
{"compound": "COc1cccc(CNC(=O)NC2CCN(c3ccnc(Nc4ccc(F)cc4)n3)C2)c1 (stereo not drawn)", "tgt": "PFTAIRE2", "unit_info": "%", "%Inh": 7}
{"compound": "Fc1ccc(-c2nc3n(c2-c2ccncc2)CCS3)cc1", "tgt": "PFTAIRE2", "unit_info": "%", "%Inh": 11}
{"compound": "CNc1nc(-c2ccc3c(N)n[nH]c3c2)cc(N2C[C@@H](C(=O)Nc3ccccc3)CC[C@H]2C)n1", "tgt": "PFTAIRE2", "unit_info": "%", "%Inh": 3}
{"compound": "Cn1cncc1C(=O)NC1CCN(c2ccnc(Nc3ccc(F)cc3)n2)C1 (stereo not drawn)", "tgt": "PFTAIRE2", "unit_info": "%", "%Inh": 10}
{"compound": "c1ccc(-c2ccnc3[nH]ccc23)cc1", "tgt": "PFTAIRE2", "unit_info": "%", "%Inh": 9}
{"compound": "COc1ccc(Nc2nccc(N3CCC(NC(=O)c4cc5ccccc5s4)C3)n2)cc1 (stereo not drawn)", "tgt": "PFTAIRE2", "unit_info": "%", "%Inh": 16}
{"compound": "Cc1cnc(N)c(/C=C/c2cncc(C(=O)NCCc3ccc(Cl)cc3Cl)c2)c1.Cl", "tgt": "PFTAIRE2", "unit_info": "%", "%Inh": 0}
{"compound": "COc1nccc(-c2c(-c3ccc(F)cc3)ncn2CCCN2CCOCC2)n1", "tgt": "PFTAIRE2", "unit_info": "%", "%Inh": 0}
{"compound": "COc1cc2ncnc(Nc3cccc(Br)c3)c2cc1OC.Cl", "tgt": "PFTAIRE2", "unit_info": "%", "%Inh": 14}
{"compound": "Nc1nccc(-c2c(-c3ccc(F)cc3)ncn2C2CCN(Cc3ccccc3)CC2)n1", "tgt": "PFTAIRE2", "unit_info": "%", "%Inh": 5}
{"compound": "CNc1cc(-c2ccc3c(N)n[nH]c3c2)nc(N)n1", "tgt": "PFTAIRE2", "unit_info": "%", "%Inh": 0}
{"compound": "COc1cccc(C2=C(Nc3cc(Cl)c(O)c(Cl)c3)C(=O)NC2=O)c1", "tgt": "PFTAIRE2", "unit_info": "%", "%Inh": 8}
{"compound": "O=C(Nc1n[nH]c2nc(-c3cccs3)c(Br)cc12)C1CC1", "tgt": "PFTAIRE2", "unit_info": "%", "%Inh": 18}
{"compound": "CC(=O)c1c(C)c2cnc(Nc3ccc(N4CCNCC4)cn3)nc2n(C2CCCC2)c1=O", "tgt": "PFTAIRE2", "unit_info": "%", "%Inh": 0}
{"compound": "COc1ccc(-c2coc3ccc(-c4nnc(C)o4)cc23)cc1", "tgt": "PFTAIRE2", "unit_info": "%", "%Inh": 0}
{"compound": "Cn1cncc1-c1cc2c(Nc3ccc(OCc4ccccc4)cc3)ncnc2cn1", "tgt": "PFTAIRE2", "unit_info": "%", "%Inh": 9}
{"compound": "Fc1ccc(-c2nc[nH]c2-c2ccncc2)cc1", "tgt": "PFTAIRE2", "unit_info": "%", "%Inh": 12}
{"compound": "Cc1ccc(NC(=O)c2ccc(Cl)cc2)cc1-c1ccc(C(=O)Nc2ccncc2)cc1", "tgt": "PFTAIRE2", "unit_info": "%", "%Inh": 0}
{"compound": "Cc1ccccc1Cn1ccn2c(=O)cc(N3CCOCC3)nc12", "tgt": "PFTAIRE2", "unit_info": "%", "%Inh": 0}
{"compound": "Nc1cccc(-c2ccc3c(N)n[nH]c3c2)n1", "tgt": "PFTAIRE2", "unit_info": "%", "%Inh": 20}
{"compound": "NS(=O)(=O)c1cccc(N/C=C2\\C(=O)Nc3ccc(S(=O)(=O)Cc4c(Cl)cccc4Cl)cc32)c1", "tgt": "PFTAIRE2", "unit_info": "%", "%Inh": 26}
{"compound": "CCn1c(-c2c(N)noc2C)nc2cnccc21", "tgt": "PFTAIRE2", "unit_info": "%", "%Inh": 15}
{"compound": "Cc1ccc(NC(=O)Nc2ccccc2F)cc1-c1ccc(C(=O)Nc2ccncc2)cc1", "tgt": "PFTAIRE2", "unit_info": "%", "%Inh": 28}

* * *

- System: CIT
- assay_conditions: concentration: 1 μM, replicates: in singlicate; n = 1
Field 'label' (enum: condition met / condition not met). Set to condition met when %Inh is strictly under 20%; else condition not met.

{"compound": "Fc1ccc(-c2nn3cccc(F)c3c2-c2ccncc2)cc1 [GW475620]", "tgt": "CIT", "category_label": "condition not met"}
{"compound": "COC(=O)C(NC(=O)NC1CCN(c2ccnc(Nc3ccc(F)cc3)n2)C1)c1ccccc1 (stereo not drawn) [GSK1379712]", "tgt": "CIT", "category_label": "condition met"}
{"compound": "COc1ccc(Nc2nccc(N3CCC(NC(=O)C(C)c4ccc(Cl)cc4)C3)n2)cc1 (stereo not drawn) [GSK1379735]", "tgt": "CIT", "category_label": "condition not met"}
{"compound": "CCCCc1nn2ncccc2c1-c1ccnc(NC2CC2)n1 [GW684374]", "tgt": "CIT", "category_label": "condition not met"}
{"compound": "COc1ccc(CSc2nnc(-c3ccc4c(c3)CCO4)o2)cc1", "tgt": "CIT", "category_label": "condition met"}
{"compound": "Cc1cnc(N)c(/C=C/c2cncc(C(=O)NCCc3ccc(Cl)cc3Cl)c2)c1.Cl [GSK190937]", "tgt": "CIT", "category_label": "condition not met"}
{"compound": "FC(F)(F)c1ccccc1-c1cc(-c2c[nH]nc2-c2ccccn2)ccn1 [GW679396]", "tgt": "CIT", "category_label": "condition not met"}
{"compound": "COc1ccc(CSc2nnc(-c3ccc4ncsc4c3)o2)cc1C(F)(F)F", "tgt": "CIT", "category_label": "condition met"}
{"compound": "Fc1ccc(-c2nc[nH]c2-c2ccncc2)cc1 [SB-217360]", "tgt": "CIT", "category_label": "condition not met"}
